method.description: qHTS Assay for Spectroscopic Profiling in 4-MU Spectral Region
condition.notes: compound autofluorescence, 340/450 nm, 4-MU equivalents
Description: NIH Molecular Libraries Screening Centers Network [MLSCN] NIH Chemical Genomics Center [NCGC] […] While the most informative fluorescent profiling data set is obtained by performing a full excitation and emission scan of each well by using a monochromator-based plate reader, such an approach is practical only on a very limited scale as scanning each well requires long time. […]
Hit rate of the full screen: of about 59,000 compounds, about 6,200 (11%) were called active. Another 9% or so got no clear call; they are omitted. No stated cut-off is given here; in the data, active means max dye-equivalent concentration above about 10 nM; inconclusive means mostly about 1.1 nM to 9.6 nM; inactive means weaker than that. Many of the other results were omitted from the sample, so actives are more common in it than they were.
Assign a class; possible classes are TRUE for active, FALSE for inactive

Look over these answered cases.
CCN1c2nc3c(C)cccn3c(=O)c2CC2(C(=O)N(C)C(=O)N(C)C2=O)C1C (centres undefined) | TRUE
C[C@@]12CC[C@H](O)C[C@@H]1CC[C@@H]1[C@@H]2CC[C@@]2(C)[C@@H](C3=CC(=O)OC3)[C@H](O)C[C@]12O | FALSE
O=C(c1cc2nc(-c3ccccc3)cc(-c3ccccc3)n2n1)N1CCC2(CC1)OCCO2 | TRUE
CSC1=NP(=S)(SC)N(C)c2nc3n(c21)CCC3 (centres undefined) | TRUE

Q) Record lookup: outcome of this test for `CC(=O)O[C@H]1CC[C@@]2(C)[C@@H](CC[C@H]3[C@H]2CC(=O)[C@]2(C)[C@@H]3C[C@@H](N3CC3)[C@H]2C(C)=O)C1` ?
A) FALSE
